Numbers sourced from patent US20230312582A1.

- protocol description: Pharmacokinetic assay (crystal form) in mice
- Type: in vivo
- protocol conditions: male, ICR, mouse, plasma, oral intragastric administration 10 mg/kg
# reported Cmax; entries follow
Express it in ng/mL; write the number only.

compound="O=C(COCCc1cnn[nH]1)N1Cc2cnc(NC3Cc4ccccc4C3)nc2C1 [Control compound, reference compound]" experimental_result=2040

input: Can you share its Cmax? I mean this compound: C[C@H](Cc1cnn[nH]1)OCC(=O)N1Cc2cnc(NC3Cc4ccccc4C3)nc2C1 [Crystal form A of benzenesulfonate]
output: 6600

---

- protocol description: In vivo pharmacokinetic assay in mice
- protocol conditions: male, ICR, mouse, in vivo, intravenous injection 1 mg/kg
measure name: AUC(0-t) (ng·h/mL)
Express the result in ng·h/mL but write the number alone.

input: Tell me the measured AUC(0-t) of O=C(COCCc1cnn[nH]1)N1Cc2cnc(NC3Cc4ccccc4C3)nc2C1 [Control compound, reference compound] , please.
output: 290
